Recorded EC50, one value per entry.
TESTED ON: human FGFR2b on KATO III cells (human, UniProt P21802)
Sequence (P21802 22-377): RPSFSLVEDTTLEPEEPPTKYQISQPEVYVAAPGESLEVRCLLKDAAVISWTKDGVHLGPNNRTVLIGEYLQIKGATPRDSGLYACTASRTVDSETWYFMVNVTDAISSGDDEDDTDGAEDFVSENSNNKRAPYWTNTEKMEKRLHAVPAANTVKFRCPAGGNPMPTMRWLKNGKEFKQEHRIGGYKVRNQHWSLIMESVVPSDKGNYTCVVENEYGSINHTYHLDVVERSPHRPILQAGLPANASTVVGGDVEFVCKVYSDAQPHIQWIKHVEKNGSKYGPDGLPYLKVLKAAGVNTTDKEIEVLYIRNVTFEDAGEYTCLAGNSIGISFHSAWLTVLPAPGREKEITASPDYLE
MEASUREMENT NOTES: FACS
The reply should contain only the number, in µg/mL.

Check out these entries, answers already filled in.
>  <BINDER>
3B4 (antibody, V domains shown) VH: EVQLQQSGADLVKPGASVKMSCKASGYTFSYYNMHWVRRTPGQGLEWIGLIYPDNGDTSYNQKFKGKATLTADTSSSTAYMQLSSLTSEDSAVYYCARGGLDYWGQGTTLTVSS VL: DIQMIQSPASMSASVGETVTITCGASENIYGALNWYQRKQGKSPQLLIYGATNLADGMSSRFSGSGSGRQYSLKISSLHPDDVATYYCQNVLSTPYTFGGGTKLEMK

>  <UNIT SYMBOL>
µg/mL

>  <EC50>
0.168

$$$$
>  <BINDER>
3A8 (antibody, V domains shown) VH: QVQLQQSGAELVKPGASVKMSCKASGYTFTIYNIHWVRQTPGQGLEWIGLIYPDNGDTSYNQKFKAKATLTADKSSSTAYMQLSSLTSEDSAVYYCARGGFDYWGQGTSLTVSS VL: DIVMTQSQKFMSTSVGDRVSVTCKASQNVGTNVAWYQQKPGQSPKALIYSASYRYSGVPDRFTGSGSGTDFTLTISNVQAEDLADYFCQQHYSTPYTFGGGTKLEMK

>  <UNIT SYMBOL>
µg/mL

>  <EC50>
0.199

$$$$
>  <BINDER>
2B2 (antibody, V domains shown) VH: QLQLQQSGAELVKPGASVKMSCKASGYTFASYNLHWVKQTPGQGLEWIGLIYPENGDTSYNQKFKDKATLTADKSSTTAYIQLSSLASEDSAVYFCARGGFDYWGQGTTLTVSS VL: DIVMTQSQKFMSTSVGDRVSVTCKASQNVGTNVAWYQQKPGQSPKALIYSASYRYSGVPDRFTGSGSGTDYTLTISSVQAEDLALYYCQQHYSTPYTFGGGTKLELK

>  <UNIT SYMBOL>
µg/mL

>  <EC50>
0.233

$$$$
>  <BINDER>
1G6 (antibody, V domains shown) VH: EIQLQQSGAELVKPGASVKMSCKASGYTFRYYNMHWVKRTPGQGLEWIGLIYPDNGDTSYNQKFKGKATLTADTSSSTAYMQLSSLTSEDSAVYYCARGGLDYWGQGTSLTVSS VL: NIVMTQSHKFMSTSVGDRVSITCKASQDVNTDVAWYQQKPGQSPKLLIYSASYRYTGVPTRFTGSGSGTDFTFTISGVQAEDLADYYCQQHYNTPYTFGGGTKLELK

>  <UNIT SYMBOL>
µg/mL

>  <EC50>
0.186

$$$$

Now look at this entry.
## Input What EC50 value was documented for this binder, 3G10 (antibody, V domains shown) VH: EVQLQQSGPELVKPGASVKMSCKASGYTFATYNMHWVKQTTGQGLEWIGAIYPDNGDTFYNRKFKDKATLTADKSSTTAYMQLSSLTSEDSAVYYCARGDFAYWGQGTLVTVSA VL: DVLMTQSPASLSASVGETVTITCGASENIYGALNWYQRKQGKSPQLLIYGATNLADGMSSRFSGSGSGRQYSLKISSLHPDDVATYYCQNVLSTPYTFGGGTKLEMK ?
## Output 0.149
